Target: feline FcRn complex (FcRn-α subunit and β-microglobulin), biotin labeled (feline)
Assay: SPR, pH 6
List of pKd values.
// field semantics: pKd = negative decimal log of concentration (mol/L)

| binder | pKd |
| --- | --- |
| feline IgG1a S252Y/S428M/D312P (antibody, part only; not given: Variable domains, not shown: another chain or arm of the molecule) constant: ASTTAPSVFPLAPSCGTTSGATVALACLVLGYFPEPVTVSWNSGALTSGVHTFPAVLQASGLYSLSSMVTVPSSRWLSDTFTCNVAHPPSNTKVDKTVRKTDHPPGPKPCDCPKCPPPEMLGGPSIFIFPPKPKDTLYISRTPEVTCLVVDLGPDDSDVQITWFVDNTQVYTAKTSPREEQFNSTYRVVSVLPILHQPWLKGKEFKCKVNSKSLPSPIERTISKAKGQPHEPQVYVLPPAQEELSRNKVSVTCLIKSFHPPDIAVEWEITGQPEPENNYRTTPPQLDSDGTYFVYSKLSVDRSHWQRGNTYTCSVMHEALHSHHTQKSLTQSPGK | 9.10 |

Recorded pKd of feline IgG1a S252Q (antibody, part only; not given: Variable domains, not shown: another chain or arm of the molecule) constant: ASTTAPSVFPLAPSCGTTSGATVALACLVLGYFPEPVTVSWNSGALTSGVHTFPAVLQASGLYSLSSMVTVPSSRWLSDTFTCNVAHPPSNTKVDKTVRKTDHPPGPKPCDCPKCPPPEMLGGPSIFIFPPKPKDTLQISRTPEVTCLVVDLGPDDSDVQITWFVDNTQVYTAKTSPREEQFNSTYRVVSVLPILHQDWLKGKEFKCKVNSKSLPSPIERTISKAKGQPHEPQVYVLPPAQEELSRNKVSVTCLIKSFHPPDIAVEWEITGQPEPENNYRTTPPQLDSDGTYFVYSKLSVDRSHWQRGNTYTCSVSHEALHSHHTQKSLTQSPGK , please.
6.72

Here is the next binder: feline IgG1a H436Y (antibody, part only; not given: Variable domains, not shown: another chain or arm of the molecule) constant: ASTTAPSVFPLAPSCGTTSGATVALACLVLGYFPEPVTVSWNSGALTSGVHTFPAVLQASGLYSLSSMVTVPSSRWLSDTFTCNVAHPPSNTKVDKTVRKTDHPPGPKPCDCPKCPPPEMLGGPSIFIFPPKPKDTLSISRTPEVTCLVVDLGPDDSDVQITWFVDNTQVYTAKTSPREEQFNSTYRVVSVLPILHQDWLKGKEFKCKVNSKSLPSPIERTISKAKGQPHEPQVYVLPPAQEELSRNKVSVTCLIKSFHPPDIAVEWEITGQPEPENNYRTTPPQLDSDGTYFVYSKLSVDRSHWQRGNTYTCSVSHEALHSHYTQKSLTQSPGK
7.99

One more binder: feline IgG1a P247V (antibody, part only; not given: Variable domains, not shown: another chain or arm of the molecule) constant: ASTTAPSVFPLAPSCGTTSGATVALACLVLGYFPEPVTVSWNSGALTSGVHTFPAVLQASGLYSLSSMVTVPSSRWLSDTFTCNVAHPPSNTKVDKTVRKTDHPPGPKPCDCPKCPPPEMLGGPSIFIFPPKVKDTLSISRTPEVTCLVVDLGPDDSDVQITWFVDNTQVYTAKTSPREEQFNSTYRVVSVLPILHQDWLKGKEFKCKVNSKSLPSPIERTISKAKGQPHEPQVYVLPPAQEELSRNKVSVTCLIKSFHPPDIAVEWEITGQPEPENNYRTTPPQLDSDGTYFVYSKLSVDRSHWQRGNTYTCSVSHEALHSHHTQKSLTQSPGK
8.28

These entries and their values trace back to patent US20240400708A1.
